src = patent US5008294A

test system: human lung tumor cell line LX-T; experiment: Antitumor effect against human lung tumor cell line LX-T (clonogenic assay / DNA flow cytometry with DAPI, Example 5); assay type: cell-based; conditions: 50% cell growth inhibition, ± SD, read-out: Calculated ED(50)
Measurement Type: EC50 (µM)
Respond numerically; units are µM and should not be typed.

Form field, EC50 with human lung tumor cell line LX-T, item C[C@H](Cc1ccc(O)c(O)c1)[C@@H](C)Cc1ccc(O)c(O)c1 : 17.6
